The entries below come with measured TGI values attached.
Tested on: HCT-116 colon
Experiment: NCI tumour cell line growth inhibition, 48 h
// note: answer is a bare numeric in µM

CCCCCc1c(C)[nH]c(/C=C2\N=C(c3ccc[nH]3)C=C2CC)c1C    0.0255
O=C1c2ccn(CCCCNC(CO)(CO)CO)c2C(=O)c2c1c(O)c1ccccc1c2O    0.857
C=C1C(=O)O[C@H]2[C@H]1[C@@H](OC(=O)C=C(C)C)CC1=C[C@@H](C[C@@]3(C)O[C@@H]23)OC1=O    16.5

Then this molecule:
QUERY: Field request: TGI | item: Nc1nc(Nc2ccccc2)c2ncn(Cc3cc4c(cc3Br)OCO4)c2n1
RESULT: 24.9

###

Recorded measurements of TGI, one per entry
Test system: MDA-MB-435
Assay: NCI tumour cell line growth inhibition, 48 h

Known TGI results, listed for orientation:
CN(Nc1cc(=O)[nH]c(=O)[nH]1)c1ccccc1    > 100 µM
COn1cc(C=O)c2ccccc21    34.9 µM
CC1(C)OCC2OC3(c4nc(C#N)c(N)o4)OC(C)(C)OC3C2O1 (centres undefined)    > 100 µM
O=C(O)Cc1c(O)ccc2ccccc12    > 100 µM
COC(=O)C1=C(C)NC(C)=C(C(=O)OC)C1c1ccc(/[N+]([O-])=C/c2ccccc2)cc1    > 100 µM

QUERY: Endpoint output: TGI of c1ccc2c3ccn4cc5c(cc4c-3nc2c1)CCCC5 . Value?
RESULT: 4.19 µM

QUERY: Fill in: TGI of CN1CCOC1(C)CO (centres undefined) is ___
RESULT: > 100 µM

QUERY: Query (molecule): Cc1c(C2Nc3ccccc3C2C)[nH]c2ccccc12 (centres undefined) ; field requested: TGI
RESULT: 24.6 µM

###

System: MCF7 breast
Assay: NCI tumour cell line growth inhibition, 48 h; in the data active means GI50 below about 0.43 µM; inactive means the rest
Use one of these outcomes when replying: yes (1) (active), no (0) (inactive)

Consider the following illustrative entries.
Cc1n(Cc2ccc3ccccc3c2)cc[n+]1Cc1ccc2ccccc2c1    no (0)
CCN(CC)CC(C)(C)C(=O)/C=C/c1ccc(Cl)c(Cl)c1    no (0)
COc1ccc(/C=c2/sc3n(c2=O)C(c2ccc(OC)c(OC)c2)C2=C(N=3)c3cc(F)ccc3OC2)cc1 (stereo not given)    no (0)
CN(C)c1ccc2nc3ccc(=O)cc-3sc2c1    no (0)
COc1cc(/C=C2\C(=O)Nc3ccc(F)cc32)cc(OC)c1OC    no (0)
CCOC(=O)N1CCN(C(=O)c2ccc(C(F)(F)F)nc2Nc2cc(Cl)ccc2C)CC1    no (0)
Nc1ccncc1/C=C1/C(=O)Nc2ccccc21    no (0)
COc1cc2cn3c4ccc(O)cc4[nH]c(=O)c3c2cc1OC    yes (1)

QUERY: Name the outcome recorded for O=C(Nc1ccc(Cl)cc1F)c1cc(Br)ccc1O in the assay.
RESULT: no (0)

QUERY: Please share the test call associated with Cc1cc(NC(=O)c2ccc(C)c(Nc3nccc(-c4cccnc4)n3)c2)cc(-n2cnc(C)c2)c1 .
RESULT: no (0)

QUERY: Given CCN1C(=O)N(CC)C2C1NC(=S)N2/N=C/C=C/c1cccs1 (stereo not given) , state the outcome it received in this test.
RESULT: yes (1)

QUERY: What is the recorded call for this compound in the test? c1ccc2c3ccn4cc5c(cc4c-3nc2c1)CCCC5
RESULT: no (0)

QUERY: Please state the recorded outcome for this compound: C#CC(=O)Nc1cccc(Nc2nc3c(c(NCc4ccccc4)n2)CCCC3)c1
RESULT: yes (1)

QUERY: Tell me the assay call for O=C1/C(=C\c2cccn2Cc2ccccc2)c2ccccc2N1c1c(Cl)cccc1Cl please.
RESULT: yes (1)

QUERY: Just curious, what result did CN1CCc2c(Sc3ccc(C(=O)NO)cc3)c3ccccc3n2C1 get here?
RESULT: no (0)

###

# reported TGI; entries follow
System: SNB-19 CNS
Assay: NCI tumour cell line growth inhibition, 48 h

NC(CCC(=O)NC(CSC(=O)N(O)c1ccc(Br)cc1)C(=O)NCC(=O)O)C(=O)O (stereo not drawn)    > 100 µM
O=C(/C=C/c1c(O)ccc2ccccc12)c1ccc2ccccc2c1    > 100 µM
O=C(O)Cc1c(O)ccc2ccccc12    > 100 µM
COc1cc(/C=C2\C(=O)Nc3ccc(F)cc32)cc(OC)c1OC    > 100 µM
CN1CCc2c(Sc3ccc(C(=O)NO)cc3)c3ccccc3n2C1    6.79 µM
CC1=NC(=Cc2ccc(O)cc2)C(=O)N1n1c(-c2ccccc2)nc2ccccc2c1=O    > 100 µM
C/C(=C1/CCCC2(N=NCC2c2ccccc2)C1=O)c1ccccc1 (stereo not drawn)    > 100 µM
COc1ccc2c(c1)CN1C(=N2)CSC1c1cc([N+](=O)[O-])ccc1Cl (stereo not drawn)    > 100 µM
COc1ccc2c(c1)CCc1c-2[nH]c2ccc(OC)cc12    > 100 µM
CCOC(=O)CC1c2ccc(O)cc2OC(=O)C1c1ccc([N+](=O)[O-])cc1 (stereo not drawn)    > 100 µM

QUERY: Item CC1=C(C(=O)Nc2c(C)cccc2C)C(c2ccccc2Cl)C(C(=O)Nc2c(C)cccc2C)=C(C)N1 has what recorded TGI?
RESULT: > 100 µM

QUERY: Would you mind telling me what TGI value was observed for COC(=O)c1ccc(/C=C2\N=C(C)OC2=O)cc1 ?
RESULT: > 100 µM

QUERY: Which TGI value is on record for CN1CCOC1(C)CO (stereo not drawn) ?
RESULT: > 100 µM

QUERY: Could you share which TGI value was measured for CCCCCCCCCc1cc(=O)c2c(O)cccc2o1 ?
RESULT: > 100 µM

QUERY: Look up TGI for this compound: Nc1ccncc1/C=C1/C(=O)Nc2ccccc21
RESULT: > 100 µM

QUERY: Any idea what TGI was measured for CC(=O)OC1CC2c3cccc4c3C(CC2N(C)C1=O)CN4C(=O)c1ccccc1 (stereo not drawn) ?
RESULT: > 100 µM

QUERY: Value lookup for TGI; key = Cc1cccc(/C=N/NC(=S)NCCc2ccccn2)n1
RESULT: > 100 µM

QUERY: # TGI lookup, item Cc1c[n+](Cc2ccc3ccccc3c2)cn1Cc1ccc2ccccc2c1
RESULT: 3.14 µM

QUERY: Query (compound): CCN1CCN(c2ccc(Nc3ccnc4ccc5nn(C)nc5c34)cc2)CC1 ; field requested: TGI
RESULT: 43.9 µM

QUERY: Find the recorded TGI belonging to Cc1cn(C2CC(ON3C(=O)c4ccccc4C3=O)C(CO)O2)c(=O)[nH]c1=O (stereo not drawn) and report it.
RESULT: > 10 µM

###

Test system: CAKI-1 renal
Assay: NCI tumour cell line growth inhibition, 48 h
quantity: TGI

Example molecules with recorded TGI:
COC(=O)[C@@H](NC(=O)[C@@H](OC)[C@@H]1Cc2cc3cc(OC4CC(OC5CC(O)C(O)C(C)O5)C(O)C(C)O4)c(C)c(O)c3c(O)c2C(=O)[C@H]1OC1CC(OC2CC(OC3CC(C)(O)C(O)C(C)O3)C(O)C(C)O2)C(O)C(C)O1)C(C)C (stereo partly drawn)    1.67 µM
O=C1c2cc3c(cc2CC12Cc1cc4c(cc1C2=O)CCC4)CCCC3 (stereo not drawn)    > 100 µM

Please find the next molecule below.
QUERY: # returns recorded TGI (system: CAKI-1 renal) for Nc1nc(Br)nc2c1ncn2C1CC(O)C(CO)O1 (stereo not drawn)
RESULT: > 29.9 µM

###

Property: TGI; scope: individual compounds
Tested on: OVCAR-5 ovarian
Test: NCI tumour cell line growth inhibition, 48 h

C=CCN1C[C@H](C)N([C@H](c2ccc(C(=O)N(CC)CCO)cc2)c2cccc(OC)c2)C[C@H]1C    > 100 µM
O=C(O)c1ccccc1-c1ccccc1C(=O)Nc1ccc2c(c1)Cc1cc(F)ccc1-2    88.1 µM
CCCCN1C=CN2c3nc4cc(C)c(C)cc4n3C(C(=O)OC)=C(C(=O)OC)C12 (stereo not given)    > 100 µM
Cc1cn(C2CC(ON3C(=O)c4ccccc4C3=O)C(CO)O2)c(=O)[nH]c1=O (stereo not given)    > 10 µM

QUERY: Looking for the measured TGI of CCC1c2[nH]c3ccccc3c2C[C@H]2C(=O)NC(COC(C)(C)C)C(=O)N12 (stereo not given in full) , can you help?
RESULT: > 100 µM

###

Tested on: RXF 393 renal
Assay: NCI tumour cell line growth inhibition, 48 h
quantity: GI50

NC1CCCC[C@H]1N.N[C@@H]1CCCC[C@@H]1N.O=C(P(=O)([O-])[O-])P(=O)([O-])[O-].[Pt+4].[Pt+4]    > 100 µM

QUERY: Look at this compound and give its reported GI50. COc1ccc(/C=c2/sc3n(c2=O)C(c2ccc(OC)c(OC)c2)C2=C(N=3)c3cc(F)ccc3OC2)cc1 (stereo unspecified)
RESULT: > 100 µM

QUERY: May I ask what GI50 has been recorded for COc1ccc(CNc2c3ccccc3nc3ccccc23)cc1OC ?
RESULT: 1.49 µM

QUERY: For the compound shown here, Cc1ccc(N(CSc2ccc(Cl)cc2)CSc2ccc(Cl)cc2)cc1 , give the reported GI50.
RESULT: 1.73 µM

QUERY: Name the reported GI50 value associated with the compound O=C(N/N=C\c1cc(Br)ccc1O)c1ccncc1
RESULT: 1.89 µM

QUERY: Return reported GI50; argument: CN(C)Cc1c[nH]c2c1C(=O)c1c(c(O)c3ccccc3c1O)C2=O
RESULT: 9.48 µM
